Source of measurements: patent US20240400670A1

# measurementTarget: T1, human IL-23 (Sino Biological, CT048-H08H) (human, UniProt Q9NPF7 20-189; P29460 23-328)
# T1 construct: also called human IL-23 protein; Human IL-23 p19
# T1 sequence (looked up) 1: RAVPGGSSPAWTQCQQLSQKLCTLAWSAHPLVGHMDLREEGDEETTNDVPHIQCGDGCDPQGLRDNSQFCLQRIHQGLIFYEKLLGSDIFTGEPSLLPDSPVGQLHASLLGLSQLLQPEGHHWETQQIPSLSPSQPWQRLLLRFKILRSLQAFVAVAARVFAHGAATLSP
# T1 sequence (looked up) 2: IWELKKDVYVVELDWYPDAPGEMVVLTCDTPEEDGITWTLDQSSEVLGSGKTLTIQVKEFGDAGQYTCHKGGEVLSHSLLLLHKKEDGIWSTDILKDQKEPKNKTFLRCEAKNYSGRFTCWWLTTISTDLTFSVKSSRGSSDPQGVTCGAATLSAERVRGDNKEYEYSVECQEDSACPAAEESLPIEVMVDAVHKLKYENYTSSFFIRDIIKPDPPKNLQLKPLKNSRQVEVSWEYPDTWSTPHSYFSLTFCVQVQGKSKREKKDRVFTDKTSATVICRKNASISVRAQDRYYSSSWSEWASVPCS
# testName: SPR (Biacore), Protein A capture of sample, 1:1 model
The following binders are listed with their measured Kd values.
measuredProperty: Kd (pM)

>>> numericvalue("Hu38-2 (antibody, human IgG1, kappa, L234A L235A, V domains shown, humanized mAb38, IgG1/kappa) VH: EFQLVQSGAEVKKPGASVKVSCKASGYTFTDHNMNWVRQAPGQRLEWMGVINPNYGTTTYNQKFKGRVTITVDTSASTAYMELSSLRSEDTAVYYCARRGFAYWGQGTLVTVSS VL: DIVMTQTPLSLPVTPGEPASISCRSSKSLLYKDGKTYLNWFLQKPGQSPQLLIYLMSTRASGVPDRFSGSGSGTDLTLKISRVEAEDVGVYYCQQIAEYPFTFGSGTKLEIKR")
180
>>> numericvalue("Hu38-9 (antibody, human IgG1, kappa, L234A L235A, V domains shown, humanized mAb38, IgG1/kappa) VH: EFQLVQSGAEVKKPGASVKVSCKASGYSFTDHNMNWVRQAPGQRLEWMGVINPNYGTTTYNQKFKGRVTITVDQSASTAYMELSSLRSEDTAVYYCARRGFAYWGQGTLVTVSS VL: DIVMTQTPLSLPVTPGEPASISCRSSKSLLYKDGKTYLNWYLQKPGQSPQLLIYLMSTRASGVPDRFSGSGSGTDFTLKISRVEAEDVGVYYCQQIAEYPFTFGSGTKLEIKR")
283
>>> numericvalue("Hu38-12 (antibody, human IgG1, kappa, L234A L235A, V domains shown, humanized mAb38, IgG1/kappa) VH: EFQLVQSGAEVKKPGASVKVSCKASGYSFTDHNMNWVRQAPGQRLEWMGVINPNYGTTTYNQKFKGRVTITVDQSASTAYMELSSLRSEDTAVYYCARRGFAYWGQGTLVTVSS VL: DIVMTQTPLSLPVTPGEPASISCRSSKSLLYKDGKTYLNWFLQKPGQSPQLLIYLMQTRASGVPDRFSGSGSGTDLTLKISRVEAEDVGVYYCQQIAEYPFTFGSGTKLEIKR")
191
>>> numericvalue("Hu38-15 (antibody, human IgG1, kappa, L234A L235A, V domains shown, humanized mAb38, IgG1/kappa) VH: EFQLVQSGAEVKKPGASVKVSCKASGYSFTDHNMNWVRQAPGQSLEWMGVINPNYGTTTYNQKFKGRVTITVDQSASTAYMELSSLRSEDTAVYYCARRGFAYWGQGTLVTVSS VL: DIVITQTPLSLPVTPGEPASISCRSSKSLLYKDGKTYLNWFLQRPGQSPQLLIYLMSTRASGVPDRFSGSGSGTDLTLKISRVEAEDVGVYYCQQIAEYPFTFGSGTKLEIKR")
168
>>> numericvalue("Hu38-7 (antibody, human IgG1, kappa, L234A L235A, V domains shown, humanized mAb38, IgG1/kappa) VH: EVQLVQSGAEVKKPGASVKVSCKASGYSFTDHNMNWVRQAPGQRLEWMGVINPNYGTTTYNQKFKGRVTITVDTSASTAYMELSSLRSEDTAVYYCARRGFAYWGQGTLVTVSS VL: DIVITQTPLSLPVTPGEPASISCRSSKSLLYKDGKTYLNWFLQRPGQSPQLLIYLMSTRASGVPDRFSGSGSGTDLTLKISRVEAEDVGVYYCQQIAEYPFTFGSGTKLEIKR")
152
